test system: T1, HLA-A0201 on the surface of T2 cells (human)
T1 construct: MHC class I molecule on T2 cells; surface HLA-A*02:01 was read with an anti-HLA-A*02:01 FITC monoclonal antibody after overnight loading with peptide
assay text: T2 cell peptide loading, flow cytometry with anti-HLA-A*02:01 FITC antibody, peptide 100 uM
parameter measured: Mean fluorescence intensity
// return just the number, without any unit appended

# example entries with known answers
| binder | recorded number |
| --- | --- |
| TLAFLIFNL (Made by solid phase synthesis) [mutant polypeptide's variant TLAFLIFNL (SEQ ID NO: 4)] | 615 |
| PLAFLIFNI (Made by solid phase synthesis) [wild-type polypeptide PLAFLIFNI (SEQ ID NO: 7)] | 650 |

Continue with the binder presented below.
For the binder TLAFLIFNV (Made by solid phase synthesis) [mutant polypeptide's variant TLAFLIFNV (SEQ ID NO: 3)] , what Mean fluorescence intensity is on record?
620
